Some compounds, each annotated with its measured solubility kinetic.
conditions_used: buffer; pH 7.4; 200.0 µM

[[record]]
smiles_structure = "C=CCn1cccc(C(=O)Nc2ccc(F)cc2)c1=O"
reported_measurement = "> 40.8 µg/mL"

[[record]]
smiles_structure = "O=C(NCCc1cccc(Cl)c1)c1cccs1"
reported_measurement = "> 39.9 µg/mL"


Now consider a different compound.
Indicate its recorded solubility kinetic; the compound in question is C=CCn1c(O)c(N=O)c2cc(C)ccc21 > 32.4 µg/mL

* * *

conditions_used: buffer; pH 7.4; 200.0 µM
endpoint_label: solubility kinetic (µg/mL)
Return type: number; implicit unit µg/mL.

[[record]]
molecule = "COc1cc2ncnc(NCc3ccco3)c2cc1OC"
reported_measurement = 38.9

[[record]]
molecule = "CSc1cccc(NC(=S)Nc2ccc(F)cc2)c1"
reported_measurement = 34.5


For the molecule COc1ccc(C(=O)Nc2ccc3nc(C)sc3c2)cc1OC , give its reported solubility kinetic. 3

# return recorded solubility kinetic for input CC1CCN(C(=O)C(C)Cl)CC1 (stereo not drawn) 11.1

Give reported solubility kinetic value for Cc1ccc(CN(Cc2ccco2)C(=O)c2ccco2)cc1 35.4

Identify solubility kinetic associated with the molecule C=CCn1c(SCC(=O)Nc2sc3c(c2C#N)CCC(C)C3)nc2cc(C(=O)O)ccc2c1=O (stereo not drawn) 15

Give solubility kinetic for the following molecule: COc1ccccc1C(=O)Nc1ccc(NC(=O)c2ccco2)cn1 0.7

Give solubility kinetic for Cc1ccc(NC(=O)CN2C(=O)c3ccccc3S2(=O)=O)cc1C 5.9

* * *

conditions_used: buffer; pH 7.4; 200.0 µM
endpoint_label: solubility kinetic

Some entries whose results are on file:
[[record]]
compound = "CCCCn1cnc2c(oc3ccccc32)c1=O"
reported_measurement = "> 36.3 µg/mL"

[[record]]
compound = "O=S(=O)(NC1=NCCCCC1)c1ccc(F)cc1F"
reported_measurement = "> 43.2 µg/mL"

[[record]]
compound = "COc1ccc(S(=O)(=O)N2CN3CCN(C3)C2)cc1OC"
reported_measurement = "> 47 µg/mL"

[[record]]
compound = "COc1cc(NC(=O)c2ccccc2)c(OC)cc1NC(=O)Cc1ccc(F)cc1"
reported_measurement = "< 0.4 µg/mL"

[[record]]
compound = "O=C(Oc1ccccc1)N1CCOCC1"
reported_measurement = "> 31.1 µg/mL"


Lab note: next compound to report on.
Input Cc1ccc[n+](CC(=O)N2CCCc3ccccc32)c1.[Cl-] , output reported solubility kinetic. > 45.4 µg/mL

* * *

conditions_used: buffer; pH 7.4; 200.0 µM
Quick reference: solubility kinetic of the listed items.

Check out these entries, answers already filled in.
[[record]]
compound = "COc1cc(C2C(C#N)=C(SC)NC3=C2C(=O)CCC3)ccc1O (stereo not drawn)"
endpoint_label = "solubility kinetic"
reported_measurement = "> 51.4 µg/mL"

[[record]]
compound = "Cn1c(SCC(=O)NC2CCCC2)nnc1-c1ccco1"
endpoint_label = "solubility kinetic"
reported_measurement = "> 46 µg/mL"

[[record]]
compound = "CCOC(=O)C1=C(CCl)NC(=O)NC1c1ccc2c(c1)OCO2 (stereo not drawn)"
endpoint_label = "solubility kinetic"
reported_measurement = "> 50.8 µg/mL"

[[record]]
compound = "NCCc1nnc(SCC(=O)Nc2cccc(Cl)c2)o1"
endpoint_label = "solubility kinetic"
reported_measurement = "> 46.9 µg/mL"


Give the reported solubility kinetic for this compound. O=C(O)c1ccccc1C(=O)NCCCn1ccnc1 > 41 µg/mL

Could you please provide reported solubility kinetic for CCOC(=O)c1cc2ccccc2n1CC(=O)c1ccccc1 ? Thanks! < 0.7 µg/mL

Tell me solubility kinetic reported for O=C1NC(=O)N(c2ccccc2)C(=O)/C1=C\c1ccccc1[N+](=O)[O-] > 50.6 µg/mL

Kindly indicate its recorded solubility kinetic. Item: CC1CCN(C(=O)CN(c2cccc(F)c2)S(C)(=O)=O)CC1 > 49.3 µg/mL

* * *

Measured solubility kinetic, listed per entry for reference.
conditions_used: buffer; pH 7.4; 200.0 µM

[[record]]
smiles_structure = "Cc1cccc(NC(=O)Nc2ccc3c(c2)CCC3)c1"
reported_measurement = "< 0.3 µg/mL"


Identify the reported solubility kinetic for the following entry. C1N2CN3CN1CN(C2)C3 > 21 µg/mL

Please look at this compound and report its solubility kinetic: CCNC(=S)NNC(=O)c1ccc(S(=O)(=O)NCc2ccco2)cc1 > 57.4 µg/mL

Tell me solubility kinetic reported for c1ccc2c(c1)[nH]c1cnccc12 > 25.2 µg/mL

* * *

conditions_used: buffer; pH 7.4; 200.0 µM
endpoint_label: solubility kinetic

[[record]]
smiles_structure = "O=C1CCC(C(=O)Nc2ccccc2N2CCOCC2)=NN1"
reported_measurement = "> 45.3 µg/mL"

[[record]]
smiles_structure = "CCOC(=O)CNC(=O)Cc1ccc(Cl)cc1"
reported_measurement = "> 38.4 µg/mL"


For the next question, use this compound.
Quick one: give measured solubility kinetic for O=C(N/N=C/c1cccc2ccccc12)c1cccnc1 > 41.3 µg/mL

* * *

conditions_used: buffer; pH 7.4; 200.0 µM
endpoint_label: solubility kinetic

The examples below pair each entry with its known result.
[[record]]
molecule = "Cc1noc(C)c1COC(=O)COc1ccc(C#N)cc1"
reported_measurement = "> 42.9 µg/mL"

[[record]]
molecule = "Cc1nnc(SCC(=O)Nc2ccc([N+](=O)[O-])cc2)n1C"
reported_measurement = "> 46.1 µg/mL"

[[record]]
molecule = "COc1cc(OC)cc(C(=O)NCC(=O)NCc2ccccn2)c1"
reported_measurement = "> 49.4 µg/mL"


Give the reported solubility kinetic for this molecule. CC(OC(=O)COc1ccc(C#N)cc1)C(=O)c1ccccc1 (stereo unspecified) > 46.4 µg/mL

Query solubility kinetic for CCCC(=O)Nc1ccc(OCC(O)CNC(C)C)c(C(C)=O)c1.Cl (stereo unspecified) > 55.9 µg/mL

Tell me measured solubility kinetic for N#Cc1cccc(C#N)c1Oc1ccc(N)cc1 please. > 35.3 µg/mL

* * *

Here, each record is paired with measured solubility kinetic data.
conditions_used: buffer; pH 7.4; 200.0 µM

// known answers, use as guide
[[record]]
molecule = "CN1CCCN(C(=O)c2c(F)cccc2Cl)CC1"
endpoint_label = "solubility kinetic"
reported_measurement = "> 40.6 µg/mL"

[[record]]
molecule = "C=C1N(C)c2cc([N+](=O)[O-])c(N)cc2C1(C)C"
endpoint_label = "solubility kinetic"
reported_measurement = "> 35 µg/mL"

[[record]]
molecule = "O=C(O)CC(CN1C(=O)c2ccccc2C1=O)c1ccccc1 (stereo unspecified)"
endpoint_label = "solubility kinetic"
reported_measurement = "> 46.4 µg/mL"

[[record]]
molecule = "O=C(N/C(=C/c1ccco1)C(=O)N1CCOCC1)c1ccc([N+](=O)[O-])cc1"
endpoint_label = "solubility kinetic"
reported_measurement = "> 55.7 µg/mL"

[[record]]
molecule = "C=CCN1C(=O)/C(=C/c2ccsc2)SC1=S"
endpoint_label = "solubility kinetic"
reported_measurement = "< 0.6 µg/mL"


Provide measured solubility kinetic value, entry: CCOc1ccc(NC(=S)NC(=O)/C=C/c2ccco2)cc1 < 0.3 µg/mL

* * *

conditions_used: buffer; pH 7.4; 200.0 µM
endpoint_label: log10 of solubility kinetic (log10 of the value in µg/mL)
Log10 applied to solubility kinetic; unit prior to transform: µg/mL.

[[record]]
molecule = "Cc1ccc(NC(=S)N2CCC(c3ccccc3)C2)c(Cl)c1 (configuration not stated)"
reported_measurement = 0.85

[[record]]
molecule = "O=C(COC(=O)c1ccc(Br)c(S(=O)(=O)N2CCOCC2)c1)NCCc1ccccc1"
reported_measurement = 1.38

[[record]]
molecule = "CC(NC(=O)c1cc(=O)[nH]c2ccccc12)c1ccc(F)cc1F (configuration not stated)"
reported_measurement = 0.45

[[record]]
molecule = "COc1ccc(N2CCN(C(=O)NC(=O)c3ccccc3)CC2)cc1"
reported_measurement = 1.59

[[record]]
molecule = "Cc1ccc(SCC(=O)OCC(=O)NC2(C#N)CCCCC2)cc1"
reported_measurement = 1.68


Retrieve log10 of solubility kinetic measured for Fc1ccc(CNC(=S)NCc2ccccc2)cc1 and print it. 1.04

Let me know recorded log10 of solubility kinetic for Cc1ccc(/C=C2\SC(N3CCCCC3)=NC2=O)cc1 , thanks. 0.76

* * *

conditions_used: buffer; pH 7.4; 200.0 µM
endpoint_label: solubility kinetic

[[record]]
molecule = "O=C(NCCCNC(=O)c1cnccn1)c1ccc(Cl)cc1"
reported_measurement = "> 47.8 µg/mL"

[[record]]
molecule = "COc1cccc(NS(=O)(=O)c2ccc3c(c2)CC(=O)N3)c1"
reported_measurement = "> 47.8 µg/mL"

[[record]]
molecule = "Cc1ccc(N2CCN(S(=O)(=O)c3ccc(C)cc3)CC2)cc1"
reported_measurement = "< 0.4 µg/mL"

[[record]]
molecule = "CC(Oc1cccnc1[N+](=O)[O-])C(=O)Nc1ccc(F)cc1 (stereo not given)"
reported_measurement = "> 45.8 µg/mL"


Report solubility kinetic for O=C(Cc1ccc(Cl)cc1)Nc1ccc(CN2CCCCC2)cc1 > 51.4 µg/mL
